Please respond with reported IC50 for every item in the list.
- system: Muscarinic acetylcholine receptor M5 (Rattus norvegicus, UniProt P08911)
- Sequence (P08911 whole entry): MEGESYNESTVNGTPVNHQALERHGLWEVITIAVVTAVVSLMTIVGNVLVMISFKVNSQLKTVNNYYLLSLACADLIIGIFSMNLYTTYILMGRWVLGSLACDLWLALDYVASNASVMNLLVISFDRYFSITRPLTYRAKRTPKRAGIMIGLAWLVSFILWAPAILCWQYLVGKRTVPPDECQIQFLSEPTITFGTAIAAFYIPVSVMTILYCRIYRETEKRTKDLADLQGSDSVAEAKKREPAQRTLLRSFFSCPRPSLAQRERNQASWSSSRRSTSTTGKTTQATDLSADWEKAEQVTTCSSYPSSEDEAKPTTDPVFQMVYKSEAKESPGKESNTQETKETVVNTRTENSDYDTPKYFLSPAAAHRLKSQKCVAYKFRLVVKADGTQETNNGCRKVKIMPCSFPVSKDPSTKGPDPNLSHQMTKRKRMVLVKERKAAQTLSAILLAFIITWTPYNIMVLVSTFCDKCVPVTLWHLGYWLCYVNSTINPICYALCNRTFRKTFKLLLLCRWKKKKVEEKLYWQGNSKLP
- experimentSummary: Antagonist activity at rat muscarinic M5 receptor expressed in CHO cells assessed as inhibition of Ach-induced calcium response
- Assay type: functional, cell-based
- particulars: read-out: IC50

# return recorded IC50 for input `Cc1ccccc1CN1CCC(N2CCC(n3c(=O)[nH]c4ccccc43)CC2)CC1`
3.97 µM

# return recorded IC50 for input Cc1ccccc1CN1CCC(N2CC3CC(n4c(=O)[nH]c5ccccc54)CC3C2)CC1 (stereo not drawn)
> 10 µM

# return recorded IC50 for input `CCOC(=O)N1CCC(N2CCC[C@@H](NC(=O)c3ccc(C(F)(F)F)nc3)C2)CC1`
> 10 µM

* * *

- system: UniProt:P08483
- experimentSummary: Antagonist activity at rat muscarinic M3 receptor expressed in CHO cells assessed as inhibition of Ach-induced calcium response
- Format: functional, cell-based
- particulars: read-out: IC50
pIC50: −log10 of the molar value.
Please respond with reported pIC50 for every item in the list.

# return recorded pIC50 for input `CCOC(=O)N1CCC(N2CCC[C@@H](NC(=O)c3ccc(C(F)(F)F)nc3)C2)CC1`
< 5.00

# return recorded pIC50 for input `Cc1ccccc1CN1CCC(N2CCC(n3c(=O)[nH]c4ccccc43)CC2)CC1`
5.26

# return recorded pIC50 for input Cc1ccccc1CN1CCC(N2CC3CC(n4c(=O)[nH]c5ccccc54)CC3C2)CC1 (stereo not drawn)
< 5.00

* * *

Please respond with reported IC50 for every item in the list.
- system: UniProt P08482
- Sequence (P08482 whole entry): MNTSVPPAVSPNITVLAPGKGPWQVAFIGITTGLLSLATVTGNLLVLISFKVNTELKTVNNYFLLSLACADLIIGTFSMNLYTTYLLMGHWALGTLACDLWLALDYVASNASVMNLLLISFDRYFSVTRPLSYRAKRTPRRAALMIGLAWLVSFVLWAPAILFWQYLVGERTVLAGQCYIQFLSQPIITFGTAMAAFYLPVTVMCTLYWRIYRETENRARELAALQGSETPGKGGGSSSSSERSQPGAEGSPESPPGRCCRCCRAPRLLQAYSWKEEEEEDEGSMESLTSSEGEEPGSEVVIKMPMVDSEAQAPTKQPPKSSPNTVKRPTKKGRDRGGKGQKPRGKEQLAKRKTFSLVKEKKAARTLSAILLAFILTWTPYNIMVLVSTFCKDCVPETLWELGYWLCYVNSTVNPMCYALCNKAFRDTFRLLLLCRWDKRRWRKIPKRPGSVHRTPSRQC
- experimentSummary: Antagonist activity at rat muscarinic M1 receptor expressed in CHO cells assessed as inhibition of Ach-induced calcium response
- Type: functional, cell-based
- particulars: read-out: IC50
Quick note: give the figure in µM, leave out the unit.

# return recorded IC50 for input `CCOC(=O)N1CCC(N[C@H]2CCCN(C(=O)c3ccccc3)C2)CC1`
0.273

# return recorded IC50 for input Cc1ccccc1CN1CCC(N2CC3CC(n4c(=O)[nH]c5ccccc54)CC3C2)CC1 (stereo not drawn)
6.4

# return recorded IC50 for input Cc1ccccc1CN1CCC(N2CCC(n3c(=O)[nH]c4ccccc43)C(F)C2)CC1 (stereo not drawn)
4.9

* * *

- system: Muscarinic acetylcholine receptor M1 (Rattus norvegicus)
- Sequence (whole entry): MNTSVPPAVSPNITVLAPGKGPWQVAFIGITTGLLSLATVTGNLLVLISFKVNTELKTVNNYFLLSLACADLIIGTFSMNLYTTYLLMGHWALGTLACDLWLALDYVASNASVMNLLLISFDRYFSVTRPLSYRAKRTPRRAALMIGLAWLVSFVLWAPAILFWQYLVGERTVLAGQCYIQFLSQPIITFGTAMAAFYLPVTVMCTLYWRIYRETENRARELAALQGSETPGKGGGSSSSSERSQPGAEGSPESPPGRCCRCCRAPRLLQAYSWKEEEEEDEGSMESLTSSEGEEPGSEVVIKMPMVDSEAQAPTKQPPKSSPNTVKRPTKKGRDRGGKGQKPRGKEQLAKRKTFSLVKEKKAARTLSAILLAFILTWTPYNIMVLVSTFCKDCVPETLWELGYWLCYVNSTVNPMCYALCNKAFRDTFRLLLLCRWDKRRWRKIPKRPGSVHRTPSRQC
- experimentSummary: Antagonist activity at rat muscarinic M1 receptor expressed in CHO cells assessed as inhibition of Ach-induced calcium response
- Assay type: functional, cell-based
assayReadout: Imax (%)
Quick note: give the figure in %, leave out the unit.

# return recorded Imax for input Cc1ccccc1CN1CCC(N2CC3CC(n4c(=O)[nH]c5ccccc54)CC3C2)CC1 (stereo not given)
-1.07

# return recorded Imax for input `CCOC(=O)N1CCC(N2CCC[C@@H](NC(=O)c3cc(Br)cc(Br)c3)C2)CC1`
0.4

# return recorded Imax for input `CCOC(=O)N1CCC(N2CCC[C@@H](NC(=O)c3ccc(C(F)(F)F)nc3)C2)CC1`
2.7

# return recorded Imax for input `CCOC(=O)N1CCC(N[C@H]2CCCN(C(=O)c3ccccc3)C2)CC1`
3

# return recorded Imax for input Cc1ccccc1CN1CCC(N2CCC(n3c(=O)[nH]c4ccccc43)C(F)C2)CC1 (stereo not given)
13.6

* * *

- system: Muscarinic acetylcholine receptor M3 (Rattus norvegicus, UniProt P08483)
- Sequence (P08483 whole entry): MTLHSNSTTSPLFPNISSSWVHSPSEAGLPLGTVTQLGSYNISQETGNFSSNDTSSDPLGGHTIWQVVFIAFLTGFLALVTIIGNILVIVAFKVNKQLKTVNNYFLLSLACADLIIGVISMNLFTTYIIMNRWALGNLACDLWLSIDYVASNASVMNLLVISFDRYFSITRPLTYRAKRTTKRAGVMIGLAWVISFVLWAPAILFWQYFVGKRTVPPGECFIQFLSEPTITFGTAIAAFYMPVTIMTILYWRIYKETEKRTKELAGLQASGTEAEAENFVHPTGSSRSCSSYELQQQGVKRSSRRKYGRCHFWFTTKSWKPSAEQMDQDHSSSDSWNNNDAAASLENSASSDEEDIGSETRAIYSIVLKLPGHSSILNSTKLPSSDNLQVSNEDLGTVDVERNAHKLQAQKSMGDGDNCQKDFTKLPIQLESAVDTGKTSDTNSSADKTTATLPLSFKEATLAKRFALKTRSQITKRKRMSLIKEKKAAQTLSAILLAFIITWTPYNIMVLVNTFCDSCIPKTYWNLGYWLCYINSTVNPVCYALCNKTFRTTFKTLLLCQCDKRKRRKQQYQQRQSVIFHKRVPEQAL
- experimentSummary: Antagonist activity at rat muscarinic M3 receptor expressed in CHO cells assessed as inhibition of Ach-induced calcium response
- Format: functional, cell-based
- particulars: cho; read-out: IC50
pIC50: −log10 of the molar value.
assayReadout: pIC50

# return recorded pIC50 for input Cc1ccccc1CN1CCC(N2CCC(n3c(=O)[nH]c4ccccc43)C(F)C2)CC1 (stereo unspecified)
< 5.00

* * *

- system: Muscarinic acetylcholine receptor M3 (Rattus norvegicus)
- experimentSummary: Partial agonist activity at rat muscarinic M3 receptor expressed in CHO cells calcium response
- Type: functional, cell-based
assayReadout: EC50

# return recorded EC50 for input `Cc1ccccc1CN1CCC(N2CCC(n3c(=O)[nH]c4ccccc43)CC2)CC1`
> 30 µM

* * *

- system: Muscarinic acetylcholine receptor M5 (Homo sapiens)
- Sequence (P08912 whole entry): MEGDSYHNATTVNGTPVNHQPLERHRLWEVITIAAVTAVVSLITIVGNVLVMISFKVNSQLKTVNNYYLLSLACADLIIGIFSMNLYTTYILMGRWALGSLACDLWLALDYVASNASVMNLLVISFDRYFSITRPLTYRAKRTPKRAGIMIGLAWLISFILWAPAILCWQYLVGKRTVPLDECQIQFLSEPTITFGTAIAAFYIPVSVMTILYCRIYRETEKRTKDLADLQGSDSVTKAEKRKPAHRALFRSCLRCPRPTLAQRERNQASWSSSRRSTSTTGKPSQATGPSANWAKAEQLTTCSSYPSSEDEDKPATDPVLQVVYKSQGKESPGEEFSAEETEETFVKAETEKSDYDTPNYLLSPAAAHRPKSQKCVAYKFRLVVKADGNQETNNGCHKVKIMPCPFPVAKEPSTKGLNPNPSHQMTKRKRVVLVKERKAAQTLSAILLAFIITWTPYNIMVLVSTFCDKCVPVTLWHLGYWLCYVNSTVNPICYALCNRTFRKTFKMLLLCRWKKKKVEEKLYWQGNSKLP
- experimentSummary: Partial agonist activity at human muscarinic M5 receptor expressed in CHO cells calcium response
pEC50: −log10 of the molar value.
assayReadout: pEC50

# return recorded pEC50 for input `Cc1ccccc1CN1CCC(N2CCC(n3c(=O)[nH]c4ccccc43)CC2)CC1`
< 4.52

* * *

- system: Muscarinic acetylcholine receptor M4 (Rattus norvegicus, UniProt P08485)
- Sequence (P08485 whole entry): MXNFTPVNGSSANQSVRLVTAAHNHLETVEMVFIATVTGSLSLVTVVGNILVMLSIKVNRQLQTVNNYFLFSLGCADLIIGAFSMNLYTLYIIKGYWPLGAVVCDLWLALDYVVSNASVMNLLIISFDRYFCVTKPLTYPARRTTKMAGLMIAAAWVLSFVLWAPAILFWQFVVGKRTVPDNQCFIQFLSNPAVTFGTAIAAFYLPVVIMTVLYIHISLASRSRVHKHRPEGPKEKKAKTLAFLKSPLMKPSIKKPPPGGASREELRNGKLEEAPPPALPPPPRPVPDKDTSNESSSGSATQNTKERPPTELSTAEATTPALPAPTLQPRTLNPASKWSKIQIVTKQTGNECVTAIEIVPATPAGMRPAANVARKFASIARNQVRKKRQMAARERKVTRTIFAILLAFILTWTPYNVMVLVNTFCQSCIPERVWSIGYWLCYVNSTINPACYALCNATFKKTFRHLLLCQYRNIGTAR
- experimentSummary: Antagonist activity at rat muscarinic M4 receptor expressed in CHO cells assessed as inhibition of Ach-induced calcium response
pIC50: −log10 of the molar value.
assayReadout: pIC50

# return pIC50 for Cc1ccccc1CN1CCC(N2CCC(n3c(=O)[nH]c4ccccc43)C(F)C2)CC1 (stereo not drawn) , test system: Muscarinic acetylcholine receptor M4 (Rattus norvegicus, UniProt P08485)
5.28

# return pIC50 for Cc1ccccc1CN1CCC(N2CC3CC(n4c(=O)[nH]c5ccccc54)CC3C2)CC1 (stereo not drawn) , test system: Muscarinic acetylcholine receptor M4 (Rattus norvegicus, UniProt P08485)
< 5.00

# return pIC50 for `CCOC(=O)N1CCC(N2CCC[C@@H](NC(=O)c3ccc(C(F)(F)F)nc3)C2)CC1` , test system: Muscarinic acetylcholine receptor M4 (Rattus norvegicus, UniProt P08485)
< 5.00

* * *

- system: Muscarinic acetylcholine receptor M1 (Rattus norvegicus, UniProt P08482)
assayReadout: Ki (nM)
Quick note: give the figure in nM, leave out the unit.

# return recorded Ki for input Cc1ccccc1CN1CCC(N2CCC(n3c(=O)[nH]c4ccccc43)C(F)C2)CC1 (stereo unspecified)
1350
